# target.or.test.system: TRKA (Homo sapiens (Human), UniProt P04629)
# Sequence (P04629 441-796): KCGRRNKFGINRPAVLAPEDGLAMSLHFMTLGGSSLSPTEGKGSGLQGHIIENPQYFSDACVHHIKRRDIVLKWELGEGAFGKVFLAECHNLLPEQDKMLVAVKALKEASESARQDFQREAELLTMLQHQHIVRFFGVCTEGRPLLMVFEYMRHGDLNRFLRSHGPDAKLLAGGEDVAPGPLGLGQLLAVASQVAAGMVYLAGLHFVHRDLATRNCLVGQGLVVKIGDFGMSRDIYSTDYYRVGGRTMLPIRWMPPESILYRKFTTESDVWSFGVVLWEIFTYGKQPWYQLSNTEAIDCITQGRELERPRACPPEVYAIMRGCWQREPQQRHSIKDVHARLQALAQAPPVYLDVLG
# protocol.summary: Isolated TRK enzyme assay (HTRF KinEASE-TK), TRKA
# Assay type: biochemical
# settings: read-out: Trka enzyme (IC50)
test.readout: IC50 (µM)

INSERT INTO measurements (mol, test_readout, units_symbol, readout_value) VALUES
  ('Cn1cc(C(=O)c2cncc(NC(=O)CCc3cccc(Cl)c3)c2)c2cncnc21', 'IC50', 'µM', 3.1),
  ('COc1ccc(CC(=O)Nc2cncc(C(=O)c3cn(C(C)C)c4ncncc34)c2)cn1', 'IC50', 'µM', 0.0825),
  ('CC(C)n1cc(C(=O)c2cncc(NC(=O)Cn3ncc4cccc(F)c43)c2)c2cncnc21', 'IC50', 'µM', 0.0123),
  ('N#Cc1ccc(CC(=O)Nc2cncc(C(=O)c3c[nH]c4ncncc34)c2)cc1', 'IC50', 'µM', 6.97),
  ('CC(C)n1cc(C(=O)c2cncc(NC(=O)c3ccnn3C)c2)c2cncnc21', 'IC50', 'µM', 9.8),
  ('COc1cc(OC)nc(C(=O)Nc2cncc(C(=O)c3cn(C(C)C)c4ncncc34)c2)n1', 'IC50', 'µM', 0.186),
  ('CC(C)n1cc(C(=O)c2cncc(NC(=O)c3ccc(Cl)cc3)c2)c2cncnc21', 'IC50', 'µM', 0.326),
  ('CC(C)n1ncc(CC(=O)Nc2cncc(C(=O)c3cn(C(C)C)c4ncncc34)c2)c1C(F)(F)F', 'IC50', 'µM', 0.0578);

A: C[C@@H](C(=O)Nc1cncc(C(=O)c2cn(C)c3ncncc23)c1)c1ccccc1
B: CC(C)c1cn(CC(=O)Nc2cncc(C(=O)c3cn(C(C)(C)CO)c4ncncc34)c2)nn1
C: CC(CO)(CO)n1cc(C(=O)c2cncc(NC(=O)Cc3ccc(Cl)cn3)c2)c2cncnc21
D: CC(C)n1cc(C(=O)c2cncc(NC(=O)c3cc4ccccc4[nH]3)c2)c2cncnc21
# ascending order, key=IC50 Show the ranking through the labels, in the order asked for.
B, C, D, A

1: CC(C)(C)n1cc(C(=O)c2cncc(NC(=O)Cc3ccc(F)cc3)c2)c2cncnc21
2: C[C@@H](CO)n1cc(C(=O)c2cncc(NC(=O)Cn3cc4ccccc4n3)c2)c2cncnc21
Select the item whose IC50 value is smaller, choosing between 1 and 2 . Answer with the label corresponding to your selection.
1

A: CC(C)n1cc(C(=O)c2cncc(NC(=O)Cc3ccc(Cl)cn3)c2)c2cncnc21
B: CC(C)(CO)n1cc(C(=O)c2cncc(NC(=O)Cc3ccc4ocnc4c3)c2)c2cnc(N)nc21
Task for the reader: decide whether A or B has the larger IC50. Field: selected label. Fill in the label of the entry you choose.
B
(B: 0.0122 µM, A: 0.00516 µM)

---

# target.or.test.system: TRKB (Homo sapiens (Human), UniProt Q16620)
# Sequence (Q16620 32-822 limits assumed): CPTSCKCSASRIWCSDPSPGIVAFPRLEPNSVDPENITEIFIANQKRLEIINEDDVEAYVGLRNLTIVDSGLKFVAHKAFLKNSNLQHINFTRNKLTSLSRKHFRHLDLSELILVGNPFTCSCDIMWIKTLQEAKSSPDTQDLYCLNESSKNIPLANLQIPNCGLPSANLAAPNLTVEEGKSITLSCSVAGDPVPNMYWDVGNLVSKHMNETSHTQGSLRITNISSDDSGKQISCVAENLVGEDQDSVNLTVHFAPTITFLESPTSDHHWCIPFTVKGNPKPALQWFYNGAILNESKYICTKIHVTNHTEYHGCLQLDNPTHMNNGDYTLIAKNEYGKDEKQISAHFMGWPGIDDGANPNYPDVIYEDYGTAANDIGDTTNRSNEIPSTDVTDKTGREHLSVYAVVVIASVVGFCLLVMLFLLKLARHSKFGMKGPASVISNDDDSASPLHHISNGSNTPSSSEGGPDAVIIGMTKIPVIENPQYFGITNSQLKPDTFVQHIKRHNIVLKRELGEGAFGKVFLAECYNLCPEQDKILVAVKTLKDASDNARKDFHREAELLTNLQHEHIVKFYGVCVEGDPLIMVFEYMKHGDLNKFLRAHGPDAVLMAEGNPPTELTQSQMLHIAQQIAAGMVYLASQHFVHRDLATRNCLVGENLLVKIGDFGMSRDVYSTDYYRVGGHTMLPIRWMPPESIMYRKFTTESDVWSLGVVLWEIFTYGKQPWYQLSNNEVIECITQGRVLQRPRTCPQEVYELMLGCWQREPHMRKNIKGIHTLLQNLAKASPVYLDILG
# protocol.summary: biochemical
# settings: TrkB enzyme potency
test.readout: IC50 (nM)

INSERT INTO measurements (mol, units_symbol, readout_value) VALUES
  ('CC(C)(CO)n1cc(C(=O)c2cncc(NC(=O)Cn3ccc(C4CC4)n3)c2)c2cnc(N)nc21', 'nM', 163),
  ('CC(C)(C)n1cc(C(=O)c2cncc(NC(=O)Cn3cc(C4CC4)nn3)c2)c2cncnc21', 'nM', 162);

1: CC(C)(C)n1cc(C(=O)c2cncc(NC(=O)Cn3cc(C(F)(F)F)cn3)c2)c2cncnc21
2: CC(C)(CO)n1cc(C(=O)c2cncc(NC(=O)Cn3ccc(C(F)(F)F)n3)c2)c2cncnc21
Higher IC50: 1 or 2 ? Reply briefly: the label of your chosen item.
2
(2: 98 nM, 1: 15 nM)

---

# target.or.test.system: TRKA (Homo sapiens (Human), UniProt P04629)
# protocol.summary: Isolated TRK enzyme assay (HTRF KinEASE-TK), TRKA
# Assay type: biochemical
# settings: read-out: Trka enzyme (IC50)
test.readout: IC50 (nM)

A selection of reference data follows.
INSERT INTO measurements (mol, target_or_test_system, units_symbol, readout_value) VALUES
  ('Cc1nc(C)c(C(=O)Nc2cncc(C(=O)c3cn(C(C)C)c4ncncc34)c2)o1', 'TRKA (Homo sapiens (Human), UniProt P04629)', 'nM', 6960),
  ('Cn1cc(C(=O)c2cncc(NC(=O)Cc3cccc(SC(F)(F)F)c3)c2)c2cncnc21', 'TRKA (Homo sapiens (Human), UniProt P04629)', 'nM', 67.4);

A: CC(C)n1cc(C(=O)c2cncc(NC(=O)c3cc4cnccc4[nH]3)c2)c2cncnc21
B: O=C(Cc1ccc(Cl)cn1)Nc1cncc(C(=O)c2cn(C3(CO)CC3)c3ncncc23)c1
When their IC50 values are compared, which is larger, A or B ? Could you answer with the label of the item you picked?
A
(A: 633 nM, B: 11.4 nM)

---

# target.or.test.system: UniProt P08183
# protocol.summary: MDCK-MDR1 assay (in vitro brain penetration)
# Assay type: in vitro ADME
# settings: human; MDCK-MDR1, B to A; read-out: MDCK MDR1 Papp BA
test.readout: Papp B→A (×10⁻⁶ cm/s)

INSERT INTO assay_data (compound, readout_value) VALUES
  ('CC(C)(C)n1cc(C(=O)c2cncc(NC(=O)Cn3cc(C(F)(F)F)nn3)c2)c2cncnc21 [Example 2]', 15),
  ('C[C@@H](CO)n1cc(C(=O)c2cncc(NC(=O)Cc3ccc(Cl)cc3)c2)c2cncnc21 [Example 11]', 23),
  ('C[C@H](CO)n1cc(C(=O)c2cncc(NC(=O)Cc3ccc(Cl)cc3)c2)c2cncnc21 [Example 24]', 10),
  ('CC(C)(C)n1cc(C(=O)c2cncc(NC(=O)Cn3cc(C4CC4)nn3)c2)c2cncnc21 [Example 4]', 13),
  ('CC(C)(C)n1cc(C(=O)c2cncc(NC(=O)Cn3cc(C(F)(F)F)cn3)c2)c2cncnc21 [Example 8]', 15);

a: CC(C)(CO)n1cc(C(=O)c2cncc(NC(=O)Cn3ccc(C(F)(F)F)n3)c2)c2cnc(N)nc21 [Example 52]
b: CC(C)(CO)n1cc(C(=O)c2cncc(NC(=O)Cn3ccc(C4CC4)n3)c2)c2cnc(N)nc21 [Example 53]
Compare a and b and name the one whose reported Papp B→A is smaller. # answer = label of selected item
a
(a: 9.1 ×10⁻⁶ cm/s, b: 13 ×10⁻⁶ cm/s)

---

# target.or.test.system: MDR1 (Homo sapiens (Human), UniProt P08183)
# Sequence (P08183 whole entry): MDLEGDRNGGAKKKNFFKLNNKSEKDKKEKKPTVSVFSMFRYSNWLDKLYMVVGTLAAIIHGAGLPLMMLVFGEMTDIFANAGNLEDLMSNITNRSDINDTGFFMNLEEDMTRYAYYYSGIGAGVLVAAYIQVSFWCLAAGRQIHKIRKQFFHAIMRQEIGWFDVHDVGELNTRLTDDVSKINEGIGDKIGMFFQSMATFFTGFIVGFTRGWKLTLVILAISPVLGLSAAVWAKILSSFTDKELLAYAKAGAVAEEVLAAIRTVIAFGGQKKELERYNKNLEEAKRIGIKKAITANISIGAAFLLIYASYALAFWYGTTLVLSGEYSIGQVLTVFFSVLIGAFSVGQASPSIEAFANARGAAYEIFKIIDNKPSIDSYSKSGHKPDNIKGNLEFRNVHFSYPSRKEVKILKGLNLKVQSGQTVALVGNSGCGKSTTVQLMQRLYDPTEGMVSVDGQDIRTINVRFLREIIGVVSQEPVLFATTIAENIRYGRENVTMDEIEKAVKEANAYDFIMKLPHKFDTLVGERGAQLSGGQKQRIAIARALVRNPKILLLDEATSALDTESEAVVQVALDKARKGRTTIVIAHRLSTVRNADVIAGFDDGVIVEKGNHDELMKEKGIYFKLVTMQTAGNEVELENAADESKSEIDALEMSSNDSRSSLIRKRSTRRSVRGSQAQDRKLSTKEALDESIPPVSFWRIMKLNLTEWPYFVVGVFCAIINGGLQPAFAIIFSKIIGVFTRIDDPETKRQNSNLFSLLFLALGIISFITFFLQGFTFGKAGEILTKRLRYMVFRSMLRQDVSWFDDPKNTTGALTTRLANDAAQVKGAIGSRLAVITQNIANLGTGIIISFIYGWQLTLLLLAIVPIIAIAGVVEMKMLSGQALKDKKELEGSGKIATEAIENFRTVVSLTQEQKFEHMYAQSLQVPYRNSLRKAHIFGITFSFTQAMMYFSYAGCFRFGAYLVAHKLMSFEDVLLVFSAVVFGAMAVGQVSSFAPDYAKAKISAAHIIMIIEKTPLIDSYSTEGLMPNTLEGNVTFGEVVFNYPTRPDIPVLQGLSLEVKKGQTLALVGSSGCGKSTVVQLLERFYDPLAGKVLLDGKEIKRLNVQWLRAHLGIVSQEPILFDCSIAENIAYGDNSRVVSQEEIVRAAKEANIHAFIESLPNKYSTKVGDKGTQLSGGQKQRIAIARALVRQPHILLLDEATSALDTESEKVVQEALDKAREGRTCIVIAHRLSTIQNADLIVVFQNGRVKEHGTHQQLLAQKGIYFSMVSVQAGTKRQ
# protocol.summary: MDCK-MDR1 assay (in vitro brain penetration)
# Type: in vitro ADME
# settings: human, MDCK-MDR1, MDCK-MDR1, B to A; read-out: MDCK MDR1 Papp BA
test.readout: Papp B→A (nm/s)

Worked cases, Papp B→A given:
INSERT INTO measurements (molecule, test_readout, units_symbol, readout_value) VALUES
  ('CC(C)(CO)n1cc(C(=O)c2cncc(NC(=O)Cn3cc(C(F)(F)F)nn3)c2)c2cnc(N)nc21 [Example 54]', 'Papp B→A', 'nm/s', 13),
  ('CC(C)(CO)n1cc(C(=O)c2cncc(NC(=O)Cc3ccc(F)cc3F)c2)c2cnc(N)nc21 [Example 50]', 'Papp B→A', 'nm/s', 240),
  ('C[C@H](CO)n1cc(C(=O)c2cncc(NC(=O)Cn3ccc(C(F)(F)F)n3)c2)c2cncnc21 [Example 22]', 'Papp B→A', 'nm/s', 69),
  ('C[C@H](CO)n1cc(C(=O)c2cncc(NC(=O)Cn3cc(C(F)(F)F)nn3)c2)c2cncnc21 [Example 21]', 'Papp B→A', 'nm/s', 13),
  ('CC(CO)n1cc(C(=O)c2cncc(NC(=O)Cc3ccc(C(F)(F)F)cc3)c2)c2cnc(N)nc21 (single isomer, unassigned) [Example 36]', 'Papp B→A', 'nm/s', 120);

A: Cc1cc(C(F)(F)F)nn1CC(=O)Nc1cncc(C(=O)c2cn([C@H](C)CO)c3ncncc23)c1 [Example 17]
B: C[C@H](CO)n1cc(C(=O)c2cncc(NC(=O)Cc3ccc(Cl)cn3)c2)c2cncnc21 [Example 23]
Parameter check: reported Papp B→A is higher for which label, A or B ? Give the label of your selection.
B
(B: 310 nm/s, A: 130 nm/s)

---

# target.or.test.system: UniProtKB P04629
# protocol.summary: Isolated TRK enzyme assay (HTRF KinEASE-TK), TRKA
# Assay type: biochemical
# settings: read-out: Trka enzyme (IC50)
test.readout: IC50 (nM)

Answered examples (4):
INSERT INTO measurements (compound, units_symbol, readout_value) VALUES
  ('CC(C)n1cc(C(=O)c2cncc(NC(=O)c3cc4n(n3)CCC4)c2)c2cncnc21', 'nM', 213),
  ('CC(C)n1cc(C(=O)c2cncc(NC(=O)C(N)c3ccc(Cl)cc3)c2)c2cncnc21 (centres unmarked)', 'nM', 153),
  ('CC(C)n1cc(C(=O)c2cncc(NC(=O)c3ccncc3F)c2)c2cncnc21', 'nM', 9800),
  ('COCC(C)(C)n1cc(C(=O)c2cncc(NC(=O)Cn3cc(C4CC4)nn3)c2)c2cnc(N)nc21', 'nM', 7.62);

a: CC(C)n1cc(C(=O)c2cncc(NC(=O)Cc3cccc(S(C)(=O)=O)c3)c2)c2cnc(N)nc21
b: CC(C)(CO)n1cc(C(=O)c2cncc(NC(=O)Cc3ccc(C#N)cc3)c2)c2cncnc21
Could you tell me which of a and b has the lower IC50 reading? Could you answer with the label of the item you picked?
b

P: CC(C)n1cc(C(=O)c2cncc(NC(=O)c3cnc4[nH]ncc4c3)c2)c2cncnc21
Q: CC(C)n1cc(C(=O)c2cncc(NC(=O)c3nc[nH]n3)c2)c2cncnc21
For P and Q , which recorded IC50 is lower? # reply format: chosen label
P
(P: 805 nM, Q: 4310 nM)
